# TEST_TARGET: T1, Human ANGPTL4(26-406)-FLAG-His6-Avi (human, UniProt Q9BY76 24-406, biotin on the C-terminal Avi tag in the biotinylated preparations (immobilised form in SET, ELISA and Octet))
# T1 construct: also called full-length human ANGPTL4; hANGPTL4
# T1 sequence: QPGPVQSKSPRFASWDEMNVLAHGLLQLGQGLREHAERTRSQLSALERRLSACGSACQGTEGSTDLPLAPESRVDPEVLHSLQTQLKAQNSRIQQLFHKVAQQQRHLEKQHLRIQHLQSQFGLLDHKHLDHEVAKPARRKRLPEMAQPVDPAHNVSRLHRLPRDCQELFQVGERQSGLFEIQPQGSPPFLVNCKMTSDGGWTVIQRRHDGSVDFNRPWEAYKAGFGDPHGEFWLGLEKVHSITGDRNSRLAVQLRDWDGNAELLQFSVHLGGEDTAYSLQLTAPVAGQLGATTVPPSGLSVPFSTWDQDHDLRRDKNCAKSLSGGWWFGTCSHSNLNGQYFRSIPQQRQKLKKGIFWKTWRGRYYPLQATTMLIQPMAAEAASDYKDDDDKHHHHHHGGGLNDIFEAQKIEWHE
# PROTOCOL_SUMMARY: SET assay
MEASURE: pKd
pKd here: minus log base 10 of the concentration, concentration in moles per litre.

MOR023411 (antibody, human IgG1, kappa, V domains shown, as MOR023407: built on MOR022771, limits derived) VH: EVQLLESGGGLVQPGGSLRLSCAASGFTFSSYWMHWVRQAPGKGLEWVSGISYSGSSTNYADSVKGRFTISRDNSKNTLYLQMNSLRAEDTAVYYCARDSYIYDLHWGFDNWGQGTLVTVSS VL: DIQMTQSPSSLSASVGDRVTITCRASQDISSYLNWYQQKPGKAPKLLIYAASRLQSGVPSRFSGSGSGTDFTLTISSLQPEDFATYYCQQAYYHPYTFGQGTKVEIKR = 11.70

# input Please report the recorded pKd for MOR023412 (antibody, human IgG1, kappa, V domains shown, as MOR023407: built on MOR022771, limits derived) VH: EVQLLESGGGLVQPGGSLRLSCAASGFTFSSYWMHWVRQAPGKGLEWVSGISYSGSSTNYADSVKGRFTISRDNSKNTLYLQMNSLRAEDTAVYYCARDSYIYDLHWGFDNWGQGTLVTVSS VL: DIQMTQSPSSLSASVGDRVTITCRASQDISSYLNWYQQKPGKAPKLLIYAASRLQSGVPSRFSGSGSGTDFTLTISSLQPEDFATYYCQQAYYPPYTFGQGTKVEIKR .
# output 12.00

# input Another: MOR023419 (antibody, V domains shown, as MOR023415: built on parent Fab MOR021798, limits derived) VH: QVQLLESGGGLVQPGGSLRLSCAASGFTFSDYALHWVRQAPGKGLEWVSRITYTGVYTGYADSVKGRFTISRDNSKNTLYLQMNSLRAEDTAVYYCAREHYYSSPMGGVAVDNWGQGTLVTVSS VL: DIVLTQPPSVSGAPGQRVTISCSGSSSNIGYNTVSWYQQLPGTAPKLLIYSNNIRPSGVPDRFSGSKSGTSASLAITGLQAEDEADYYCSSWDFLIKSLVFGGGTKLTVL
# output 11.70
